Target: hGlyR α1 (Homo sapiens, UniProt P23415)
Construct: Full-length cDNAs encoding zebrafish GlyR α1 and βb and human GlyR α1 and β subunits were used in this study; expressed in transfected cells; host or cells: Xenopus laevis oocytes injected with cRNA
Sequence (P23415 29-457): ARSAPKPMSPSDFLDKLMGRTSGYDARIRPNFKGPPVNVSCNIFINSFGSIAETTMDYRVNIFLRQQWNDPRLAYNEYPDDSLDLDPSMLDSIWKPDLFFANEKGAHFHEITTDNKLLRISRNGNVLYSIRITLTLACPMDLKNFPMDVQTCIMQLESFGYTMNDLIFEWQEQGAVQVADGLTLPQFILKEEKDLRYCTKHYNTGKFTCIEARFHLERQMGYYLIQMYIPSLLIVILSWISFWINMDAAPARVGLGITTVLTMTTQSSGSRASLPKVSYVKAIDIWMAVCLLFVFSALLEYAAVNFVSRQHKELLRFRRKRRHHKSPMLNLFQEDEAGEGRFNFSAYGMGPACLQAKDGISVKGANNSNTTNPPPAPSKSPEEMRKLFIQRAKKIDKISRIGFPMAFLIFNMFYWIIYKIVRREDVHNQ
Experiment: two-electrode voltage-clamp of Xenopus oocytes expressing homomeric human α1 GlyR
Format: cell-based
assay.endpoint: pIC50
Notebook: values listed as pIC50 are -log10 of the concentration (mol/L).

entry.smiles	pIC50
O=C(O)c1cccnc1Nc1cccc(C(F)(F)F)c1	2.97
O=C1C[C@@H]2OCC=C3CN4CC[C@]56c7ccccc7N1[C@H]5[C@H]2[C@H]3C[C@H]46	7.14

# input for lookup
# pIC50 lookup, item COC(=O)C1=C(C)NC(C)=C(C(=O)OC)C1c1ccccc1[N+](=O)[O-]
3.77

###

molecular target: zGlyR α1 + zGlyRβb (Danio rerio, UniProt O93430+Q6DC22); test: two-electrode voltage-clamp of Xenopus oocytes expressing heteromeric zebrafish α1βb GlyR; settings: read-out: EC50 of glycine-dependent gating
assay.endpoint: EC50 (µM)
I only need the number, in µM, no unit after it.

Find EC50 (zGlyR α1 + zGlyRβb (Danio rerio, UniProt O93430+Q6DC22)) for the entry NCC(=O)O
163

###

molecular target: zGlyR α1 (Danio rerio); construct: Full-length cDNAs encoding zebrafish GlyR α1 and βb and human GlyR α1 and β subunits were used in this study; expressed in transfected cells; host or cells: Xenopus laevis oocytes injected with cRNA; test: two-electrode voltage-clamp of Xenopus oocytes expressing homomeric zebrafish α1 GlyR; format: cell-based
Sequence (O93430 25-444): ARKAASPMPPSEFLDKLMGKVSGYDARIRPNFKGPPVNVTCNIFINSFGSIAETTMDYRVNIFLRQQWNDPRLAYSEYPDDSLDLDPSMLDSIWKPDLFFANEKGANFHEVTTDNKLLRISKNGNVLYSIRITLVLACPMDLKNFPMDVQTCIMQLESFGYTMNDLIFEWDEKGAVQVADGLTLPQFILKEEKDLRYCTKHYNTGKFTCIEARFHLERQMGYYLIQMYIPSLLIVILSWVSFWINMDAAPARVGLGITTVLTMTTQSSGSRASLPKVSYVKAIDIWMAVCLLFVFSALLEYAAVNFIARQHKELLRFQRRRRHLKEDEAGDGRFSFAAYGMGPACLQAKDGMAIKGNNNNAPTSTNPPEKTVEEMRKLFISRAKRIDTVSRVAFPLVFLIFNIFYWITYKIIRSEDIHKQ
assay.endpoint: IC50 (µM)
Please state the figure in µM; there is no need to write the unit.

molecule	measurement.target	IC50 / µM
COC(=O)C1=C(C)NC(C)=C(C(=O)OC)C1c1ccccc1[N+](=O)[O-] [Nifedipine]	zGlyR α1 (Danio rerio)	239

Consider the additional molecule presented here.
Need IC50, item O=C(O)c1cccnc1Nc1cccc(C(F)(F)F)c1 [Niflumic acid]
801

###

biological target: zGlyR α1 + zGlyRβb (Danio rerio, UniProt O93430+Q6DC22); test: two-electrode voltage-clamp of Xenopus oocytes expressing heteromeric zebrafish α1βb GlyR; assay type: cell-based
Here, each record is paired with measured pIC50 data.
Recall that pIC50 is obtained by taking minus log10 of the concentration measured in molar.

compound	measurement.target	assay.endpoint	reported.measurement
COC(=O)C1=C(C)NC(C)=C(C(=O)OC)C1c1ccccc1[N+](=O)[O-] [Nifedipine]	zGlyR α1 + zGlyRβb (Danio rerio, UniProt O93430+Q6DC22)	pIC50	3.79

What value of pIC50 has been recorded for this entry: O=C(O)c1cccnc1Nc1cccc(C(F)(F)F)c1 [Niflumic acid]
3.37

###

molecular target: hGlyR α1 + hGlyRβb (Homo sapiens, UniProt P23415+P48167); construct: Full-length cDNAs encoding zebrafish GlyR α1 and βb and human GlyR α1 and β subunits were used in this study; expressed in transfected cells; host or cells: Xenopus laevis oocytes injected with cRNA; assay: two-electrode voltage-clamp of Xenopus oocytes expressing heteromeric human α1β GlyR; type: cell-based
assay.endpoint: IC50 (µM)
Number in µM, nothing else.

Recorded results for 2 compounds are shown here.
entry.smiles	reported.measurement
O=C1C[C@@H]2OCC=C3CN4CC[C@]56c7ccccc7N1[C@H]5[C@H]2[C@H]3C[C@H]46	0.092
COC(=O)C1=C(C)NC(C)=C(C(=O)OC)C1c1ccccc1[N+](=O)[O-]	130

Now look at this one.
Which IC50 reading was recorded for the compound O=C(O)c1cccnc1Nc1cccc(C(F)(F)F)c1 ?
930

###

molecular target: zebrafish GlyRs (Danio rerio, UniProt O93430); assay: cell-based; format: cell-based; conditions: rounded value in discussion; read-out: IC50 values of GlyRs expressed in Xenopus oocytes
Sequence (O93430 25-444): as above
assay.endpoint: pIC50
# pIC50 = -log10(concentration in molar units)

entry.smiles	measurement.target	reported.measurement
COC(=O)C1=C(C)NC(C)=C(C(=O)OC)C1c1ccccc1[N+](=O)[O-]	zebrafish GlyRs (Danio rerio, UniProt O93430)	3.70

Let us examine a further case.
# lookup: pIC50 of O=C(O)c1cccnc1Nc1cccc(C(F)(F)F)c1
3.40
